assay: Particle size and surface potential of siRNA MENDs prepared by t-BuOH injecting method; format: physicochemical; details: siRNA MEND, cationic lipid/cholesterol=70/30, DMG-PEG2000 3%
outcome.measure: PDI
One number for each entry.

Cc1c(C)c2c(c(C)c1OC(=O)CCC(=O)OCCCCC1CCN(CCSSCCN3CCC(CCCCOC(=O)CCC(=O)Oc4c(C)c(C)c5c(c4C)CCC(C)(CCCC(C)CCCC(C)CCCC(C)C)O5)CC3)CC1)CCC(C)(CCCC(C)CCCC(C)CCCC(C)C)O2 (centres unmarked) [TS-P4C4] = 0.11

For reference, reported PDI for Cc1c(C)c2c(c(C)c1OC(=O)CCC(=O)OCCC1CCN(CCSSCCN3CCC(CCOC(=O)CCC(=O)Oc4c(C)c(C)c5c(c4C)CCC(C)(CCCC(C)CCCC(C)CCCC(C)C)O5)CC3)CC1)CCC(C)(CCCC(C)CCCC(C)CCCC(C)C)O2 (centres unmarked) [TS-P4C2] stands at 0.07
